The reported measurements were obtained from the NTF2 design screens of Basanta et al. (2020).

- experimentalProtocol: protease stability score; higher = more stable; yeast display proteolysis, trypsin and chymotrypsin;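 further: relative to predicted unfolded state with 0 unfolded-like and 1 meaning tenfold more protease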
resultType: protease stability score
Hey, just send me the number, nothing else.

Worked cases, protease stability score given:
| polymerSequence | protease stability score |
| --- | --- |
| DEREKREEEVLKIIIEITETGDWRIFMELADPHVKLDIGDKDMHGMEEAERLWELMHKLLGINHIRFRHLRIQGDKVDMEFNVTIGDKQVDTRRHVITVDGRLHEVHEEFK | 0.399 |
| TEEDERAKHWAERWIRLLETGDFEILTELLDPNVRVEIDINGKKIELHGMETISEDLRRRLEELGFKHFHIRDMKSQGDKSRVRGEVEVNGKPVDVHIVLNIVDGKLKTFRFENK | 1.35 |
| DEIEEDMRKSIEDVIKAHLTGDEKTYRRLFDPHVRIDIDGVDFHGWEESRRMLQEIRISIEDWKIERMEIQGDKIHIDSRVDLTVYIDGKKERDTIERHIILVKFDGRWTIESVDFR | 1.37 |

The recorded protease stability score for "HEDEKVLKEMLRILAEVITTGNEEVMKRLADPHVRIDWNGRDIIGMEERYRKLREMGIEFEVRIHLRDTRSVGEKVEFITQLDVHIRVGDKTINFHQETRVDMEKVDGRWRVNEEKVV" is 0.415

Entry "DEREERNKQISELLWHALLTGNWEMLQHLADPHVRVDINGVDLHGRELLVKHLKKFGVDHSRHHDLEIQGEKLIIRGEVEVNGKRIDVEIRIEVIDGKVKHVEVHEN" , protease stability score reported as 1.24

The reported protease stability score of the sequence "DEDDEKEKFLLELLLEALKTGDWQIFEDLADPHMKFIFNGREYHGMETFSRLMEEFLKRFPNLRIRRIEIEDHHKQGNKVELDARLYSSQGNKRLNHKMILISEKINGRWLIHSLSIE" was 2.61

Measured protease stability score, "DEEEELLRRLIKMLLHLMRTGDEDETANLLDPNVRIEWNGRTFHGREEAKRWLFELLSRVDVVKDIKIHDYDRYGDFVLLDVRLHGEIDGVPTETIFIIIIRKINGRWMIHQIYLE" : 1.42

For "SEEREDSKKFLELVLTSWITGDWRQINKNFDPHARSHVGDKEIHGMDHVAHRMNEHLERADHIHFYLEDEHIQGNKIHVDGILQLVINGVDIRMRIRLVVLKINGRWQVHSIEIK" the sequence record lists protease stability score as 1.14

Consider "SEEHELAESMAEEVLRSFLTGDEDTLHELFDPHVRVNYNGKVFHGREKLIKILNELRWDHTTVKRIEIRYYGDKVEVVLHVEIHFEINGQRISHRVDIIIIAEKVNGRWRVRDFIYIEK" . Its measured protease stability score is 1.35

Entry "SEIERDAREFLRVLLEHLHTGDEDDLARLADPHVLIDIDGREIVGRELFREIWHEMGVNHTEYKDLDIQGNKLHIHINVNVNGKVRSLRIVVRKVNGRWFIEREHYE" ; protease stability score = 1.52

# protease stability score of "DEDTEEVRKADKIYIHYLLTGDEHKNNRLADPNVRLHWNGREFHGMELFTEAFREIRHELRFDHITHHHLRMFNGRLDSDTRVDGDINGVRTIFEMKLTLLKVDGRWVLKSTEIR" = 1.26

Field protease stability score (entry "DEEEHVAWKIMEVFLEDLLTGDEDMLNRMADPHVRVIINGRENHGRESFEEFVRQIRIEDTRLKHVEIRTIGNKIHIYVHGELRLNINGKRIDRKTTWIFVIQKYDGRWILRFILIDIH" ) reads 2.31

Looking up "DELIKLAHEFLRIMYDSLRTGDEDRVSELLDPHARLDINGKKRHGRKAILDTYREIWFHDIKIKDVDVIDGVIEIDTRLDLEINGVRFEMKTIIFLTKFNGRWVIEEIRIR" , I see its protease stability score listed as 1.21

Reported protease stability score for "DERHNKQWNKELIKIWTDGDHKKFSEMLDKDVQIQVGDKEYHGREEIVRQYKTLMDRADHFEVKRYEVKGNDITIIFTFQVNGRRDQVRVVFVIENGHVKKITMDKK" was 1.97

The sequence listed as "DEEEHLSKEAVRLYIESLHTGDEDLWRSLMDPNARLHINGREFHGMERVLRILREIRIKDTRIRDFHVVNGQVHNRMELEIKVGDKERSFDVELIAYKIDGRWITKSVIHH" has a reported protease stability score of 1.29

Recorded result, "SEDEEIMKDLLELFFEAMKTGDEDTLRHLFDPNARFVIGDKLLHGREEYIRYLQEWRVEIEHFNIRRLELVDGRIHLEGHMHLHVQYGDKHERRTHHLEWEIIKINGRWIFRSVRIN" , protease stability score: 1.48

Reported protease stability score of "SEDEELTNKMRHLFLHAVRTGDETVLNRLIDPNTKLHINGVDIHGREEVRTLLREMRRHEFRTRTVEIRVIDGRVEVREDVERNGVVNGQEYETRVIIIYHAVKVDGKWVWTEIRFEER" : 0.609

response.value for "DDLHRNMKKVADLFIQVWLTGDFEELMHLFDPNVRLKVNGVEMHGRDDFAKFVKEHRERIDHMHFRLDELRIYGDKIVIHGTLHLHQGEKDWHHEVHIHLLVIDGVIRTVEEEER" (field: protease stability score) = 2.08

For "KEDSEIAEDIIRLLNHASSTGDEETFTHLADPNVRIKIGDKESHGREEWSRTLTELRVEFKDMKIRDVDIQGEYVFVEGELRVEITVNGRTIEIHYESHFIMEKVNGRWHVHSVMML" the sequence record lists protease stability score as 0.222

// protease stability score lookup, sequence = "SEEEHTSEEALRAFVFLELTGDEKSLIELLDPRTRIHAENHEVVGRERATEEWRRWLEFYKNIRVHDVEIEEIHLIDGRIKLIMRRDGVINGVKRETHIRMITNKVNGRWLVHSIIIR" , result: 1.37

protease stability score reported for this sequence "DEDEHQSRHLAELIMRHIQTGDEEMIERLADPHARSNVNGVTDHGRNTMRWMKEFFKNLTLHIEDVRIVHIGNKVIVIIHLTVRFENREEHVIIIIISEKFDGRWWITEIEIRIK" : 0.505

protease stability score recorded for this sequence, "DEEEEEHRIAHELFIKTSQTGDEQESTEMMDPNVRVTIGNKHFVGREEVSKFFKEIRIKRVRFKRIRHINGKAEMEMHMHGEVNGRERELEIHVYIFKINGRWVIEEVRFH" , is 1.64

---

- experimentalProtocol: protease stability score; higher = more stable; yeast display proteolysis, trypsin and chymotrypsin;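 further: relative to predicted unfolded state with 0 unfolded-like and 1 meaning tenfold more protease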
# if value of protease stability score reaches 1, tag Yes; if it stays below, tag No

These solved cases illustrate the format of a correct answer.
| polymerSequence | className |
| --- | --- |
| DEEERLLHEAFEELVRVWETGDEEEKLRYMDPNTIIVINGVELHGREEARKHAHHLRIHRFHLKDYRFQGDKVHLDMHIDGFINGQKMRTDVRFQVHKIDGRWVITHSIWI | Yes |
| SEDQHELTTLLEHLLRIHRTGDFHTLERLMDPNTWTLVDGVWFVGREAVEYSNKLIKFTKRIEIDHFEIQGEKATIHGTYHSHYNGREFHIHVTTYYQKINGRWVLHSIEFR | Yes |
| TEEEKFAEEMLRRFIENLITGDWRELKKLFDPDTKIVFNGREHHGMEWHIEFLREIRITHIEVRDMTLINGVAHANGHEIIIIGDKTLEMDTRINIVTINGRIHSIEIKQR | Yes |
| DEREERSRHQMEWLWHLMITGDERLLEELADPHAKIEVGDKDFHGRHTLIEIIREHLQRVKNVRLEFREIEIQGDKIIIRGKLHIGDKEKDIIVIIVVVNGRLKSFKLEVH | Yes |
| SEDEEKSHRFRRELLESLFTGDFDRFKELADPHVKVDINGRDIHGMELLVRIWRREEKEAGVNYTKDHDLKDHDIINGRAKIDIRVHGIFNGREQTVEVYIFSLKVDGRWILTFMKIN | Yes |

Attention now shifts to the item below.
Item "DEEEKRVIHIINLVEHALETGDEDLYKNLLDPDPIYNINGRILHGREFWLEFLHHMRESIEISHWHDVRSQGDKVTVHAKTTFLIRIGDKVDRVETEVRIIIVKINGRWLLHEIHHH" with protease stability score of 1 or above? No

---

Reported protease stability score values are given for each entry in this list.
- experimentalProtocol: protease stability score; higher = more stable; yeast display proteolysis, trypsin and chymotrypsin;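 further: relative to predicted unfolded state with 0 unfolded-like and 1 meaning tenfold more protease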
Answer with a number only.

| polymerSequence | resultType | assayValue |
| --- | --- | --- |
| SEEEHWVELLIELLERTQKTGDEHSFERLMDPNVRIIIGDKVMHGREEASRWMHEARVHETRIEHIRIINGRAHIDSRERGEINGREINLRVEIISSKVDGRWVITEVRVE | protease stability score | 0.943 |
| DEHTEEAKHWVTRFIHALSTGDFEQIERLADPHVRVEIGDKEIHGMEFLSEHVLKFKGIRTNIRHIEIHYYDGRVNVEVDIDIHIGDKTVNSELHIHIEKVDGRWVITSLHIRTR | protease stability score | 1.46 |

The measured protease stability score associated with "TDEEKETEEHRKHFEHYERTGDWRELERLFDPNARLIIGDKILHGRELVTRWMFEFVKEMRINHIELHTMEIQGEKIHLDITVHVKFNGQERDIRVTEIHKKFDGRWTIEQIHFN" reads 1.46
